Biological target: SIRT1 (Homo sapiens)
Sequence (Q96EB6 whole entry): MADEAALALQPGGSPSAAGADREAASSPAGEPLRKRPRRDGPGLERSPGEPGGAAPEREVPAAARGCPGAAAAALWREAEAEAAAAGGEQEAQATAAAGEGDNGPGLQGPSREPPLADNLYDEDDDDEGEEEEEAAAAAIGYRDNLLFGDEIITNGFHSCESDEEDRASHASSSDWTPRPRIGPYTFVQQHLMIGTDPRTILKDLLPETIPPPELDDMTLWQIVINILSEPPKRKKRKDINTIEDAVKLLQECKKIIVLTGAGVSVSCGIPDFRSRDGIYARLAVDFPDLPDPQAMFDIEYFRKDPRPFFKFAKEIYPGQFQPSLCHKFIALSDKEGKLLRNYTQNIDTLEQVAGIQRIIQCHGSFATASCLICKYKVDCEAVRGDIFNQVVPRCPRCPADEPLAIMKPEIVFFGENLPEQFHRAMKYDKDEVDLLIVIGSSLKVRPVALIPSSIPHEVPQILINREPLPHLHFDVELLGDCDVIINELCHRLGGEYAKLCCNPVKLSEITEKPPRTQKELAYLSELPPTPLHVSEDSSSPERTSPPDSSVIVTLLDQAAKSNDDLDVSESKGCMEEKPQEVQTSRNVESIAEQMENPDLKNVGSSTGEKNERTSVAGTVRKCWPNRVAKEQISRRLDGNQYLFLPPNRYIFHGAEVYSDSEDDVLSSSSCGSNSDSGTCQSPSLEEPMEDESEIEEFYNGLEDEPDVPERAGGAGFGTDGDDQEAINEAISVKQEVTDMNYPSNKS
Assay: TAMRA based mass spectrometry assay of SIRT1 activity
Assay type: biochemical
Conditions: concentration of test compound giving 150% activation of SIRT1; TAMRA peptide substrate
observable: TAMRA EC1.5 (μM)

Completed entries (count: 5):
What TAMRA EC1.5 (μM) value was documented for this compound, `O=C(Nc1cccc(CN2CCOCC2)n1)c1cnc2ccc(-c3cccc(F)c3)nn12` ?
A (EC1.5<1 μM)

What TAMRA EC1.5 (μM) value was documented for this compound, `O=C(Nc1cccc(N2CCOCC2)n1)c1cnc2ccc(-c3cccc(F)c3Cl)nn12` ?
A (EC1.5<1 μM)

What TAMRA EC1.5 (μM) value was documented for this compound, `Cc1nc2ccc(-c3ccccc3C(F)F)nn2c1C(=O)Nc1ccnc(N2CCOCC2)c1` ?
A (EC1.5<1 μM)

What TAMRA EC1.5 (μM) value was documented for this compound, `Cc1cccc(NC(=O)c2cnc3ccc(-c4ccccc4C(F)(F)F)nn23)n1` ?
A (EC1.5<1 μM)

What TAMRA EC1.5 (μM) value was documented for this compound, `O=C(Nc1cccc(CN2CCOCC2)n1)c1cnc2ccc(-c3ccc(F)c(F)c3)nn12` ?
B (EC1.5 1-25 μM)

Batch of 5 compounds: report TAMRA EC1.5 (μM) for each.
1. O=C(Nc1cnccn1)c1cnc2ccc(-c3cccc(F)c3Cl)nn12
2. O=C(Nc1nc(CN2CCOCC2)cs1)c1cnc2ccc(-c3cccc(Cl)c3)nn12
3. O=C(Nc1nc(CN2CCOCC2)cs1)c1cnc2ccc(-c3ccc(F)cc3F)nn12
4. O=C(Nc1cccc(N2CCCC2)n1)c1cnc2ccc(-c3ccccc3C(F)F)nn12
5. O=C(Nc1cccc(CN2CCOCC2)n1)c1cnc2ccc(-c3cccc(F)c3F)nn12

1: B (EC1.5 1-25 μM); 2: A (EC1.5<1 μM); 3: B (EC1.5 1-25 μM); 4: A (EC1.5<1 μM); 5: A (EC1.5<1 μM)

Batch of 3 compounds: report TAMRA EC1.5 (μM) for each.
1. Cc1cncc(NC(=O)c2cnc3ccc(-c4ccccc4C(F)(F)F)nn23)c1
2. O=C(Nc1ccnc(CN2CCOCC2)n1)c1cnc2ccc(-c3ccccc3C(F)F)nn12
3. COCCn1cc(NC(=O)c2cnc3ccc(-c4ccccc4C(F)(F)F)nn23)ccc1=O

B (EC1.5 1-25 μM)
B (EC1.5 1-25 μM)
B (EC1.5 1-25 μM)

Batch of 4 compounds: report TAMRA EC1.5 (μM) for each.
1. O=C(Nc1ncc(F)cc1F)c1cnc2ccc(-c3ccccc3C(F)(F)F)nn12
2. O=C(Nc1ccnc(N2CCC2)c1)c1cnc2ccc(-c3ccccc3C(F)F)nn12
3. O=C(Nc1ccncc1)c1cnc2ccc(-c3ccccc3C(F)(F)F)nn12
4. O=C(Nc1nc(CN2CCOCC2)cs1)c1cnc2ccc(-c3ccccc3C(F)F)nn12

1: B (EC1.5 1-25 μM); 2: A (EC1.5<1 μM); 3: B (EC1.5 1-25 μM); 4: B (EC1.5 1-25 μM)
